Test system: LNCaP, hormone-dependent prostate cancer
Experiment: In vitro cytotoxicity, human tumor panel: LNCaP
Format: cell-based
Details: Homo sapiens, LNCaP, read-out: ED50 LNCaP
Please provide measured IC50 for the entries that follow.

{"columns": ["COMPOUND", "REPORTED_ENDPOINT", "OBSERVED_RESULT"],
 "data": [
  ["COc1cc(C=CC(=O)O[C@H]2C[C@H]3C[C@H](OC(=O)C=Cc4cc(OC)c(OC)c(OC)c4)[C@@H](C2)N3C)cc(OC)c1OC", "IC50", "> 20 µg/mL"]
]}

Batch request: IC50 for each of the following compounds.
1. COc1cc(C=CC(=O)O[C@H]2C[C@@H]3C[C@H](OC(=O)c4cc(OC)c(OC)c(OC)c4)C[C@H]2N3C)cc(OC)c1OC
2. CN1[C@@H]2C[C@@H](OC(=O)Cc3ccccc3)C[C@H]1[C@H](O)[C@@H]2O [Compound 1, Tropane-3α,6β,7β-triol 3-phenylacetate]
3. COc1cc(C=CC(=O)O[C@H]2[C@@H](O)[C@@H]3C[C@H](OC(=O)c4cc(OC)c(OC)c(OC)c4)C[C@H]2[N+]3(C)[O-])cc(OC)c1OC (some centres unmarked)

(A)
["1 µg/mL", "> 20 µg/mL", "> 20 µg/mL"]

----------
REPORTED_ENDPOINT: melting point

Please review the entries below; each comes with its answer.
{"columns": ["MOLECULE", "OBSERVED_RESULT"],
 "data": [
  ["COc1cc(C=CC(=O)O[C@H]2[C@@H](O)[C@@H]3C[C@H](OC(=O)c4cc(OC)c(OC)c(OC)c4)C[C@H]2[N+]3(C)[O-])cc(OC)c1OC (some centres unmarked)", "118 to 121 °C"],
  ["COc1cc(C=CC(=O)O[C@H]2C[C@@H]3C[C@H](OC(=O)Cc4cccc(O)c4)C[C@H]2N3C)cc(OC)c1OC", "53 to 57 °C"],
  ["COc1cc(C=CC(=O)O[C@H]2C[C@@H]3C[C@H](OC(=O)Cc4ccccc4)C[C@H]2N3C)cc(OC)c1OC", "59 to 61 °C"],
  ["CN1[C@@H]2C[C@@H](OC(=O)Cc3ccccc3)C[C@H]1[C@H](O)[C@@H]2O [Compound 1, Tropane-3α,6β,7β-triol 3-phenylacetate]", "120 to 122 °C"]
]}

We now examine a further molecule.
(Q) Suppose we examine the molecule COc1cc(C=CC(=O)O[C@@H]2C[C@@H]3[C@@H](OC(=O)C=Cc4cc(OC)c(OC)c(OC)c4)[C@@H](O)[C@H](C2)N3C)cc(OC)c1OC ; what melting point value has been reported?
(A) 59 to 61 °C

----------
Tested on: CAKI-1, renal
Experiment: In vitro multidrug resistance modulation (DINIB synergy): CAKI-1
Type: cell-based, human
Conditions: increase of cytotoxicity of DINIB 1 × 10^−4 M; modulator μg/mL: verapamil 12.5, cyclosporin A 6.3, pervilleine B 12.5, C 3.1, D 50.0, F 25.0; <25 insignificant, >100 strong synergy
Please provide measured synergy value at a 95% confidence level, CAKI-1 for the entries that follow.
Give bare numbers.

{"columns": ["COMPOUND", "OBSERVED_RESULT"],
 "data": [
  ["COc1cc(C=CC(=O)O[C@@H]2C[C@@H]3[C@@H](OC(=O)C=Cc4cc(OC)c(OC)c(OC)c4)[C@@H](O)[C@H](C2)N3C)cc(OC)c1OC [Compound 7]", 387.9],
  ["COc1cc(C=CC(=O)O[C@H]2C[C@H]3C[C@H](OC(=O)C=Cc4cc(OC)c(OC)c(OC)c4)[C@@H](C2)N3C)cc(OC)c1OC [Compound 6]", 332.3],
  ["COc1cc(C=CC(=O)O[C@H]2C[C@@H]3C[C@H](OC(=O)Cc4ccccc4)C[C@H]2N3C)cc(OC)c1OC [Compound 9]", 342.1]
]}

We now examine a further compound.
(Q) Value wanted: synergy value at a 95% confidence level, CAKI-1 (CAKI-1, renal) of entry COc1cc(C=CC(=O)O[C@H]2C[C@@H]3C[C@H](OC(=O)c4cc(OC)c(OC)c(OC)c4)C[C@H]2N3C)cc(OC)c1OC [Compound 5]
(A) 268.1

----------
Please provide measured IC50 for the entries that follow.
Tested on: KB, oral epidermoid carcinoma
Assay: In vitro cytotoxicity, human tumor panel: KB
Type: cell-based
Details: Homo sapiens, read-out: ED50 KB

Please review the entries below; each comes with its answer.
{"columns": ["COMPOUND", "OBSERVED_RESULT"],
 "data": [
  ["COc1cc(C=CC(=O)O[C@@H]2C[C@@H]3[C@@H](OC(=O)C=Cc4cc(OC)c(OC)c(OC)c4)[C@@H](O)[C@H](C2)N3C)cc(OC)c1OC", "11 µg/mL"],
  ["COc1cc(C=CC(=O)O[C@H]2C[C@@H]3C[C@H](OC(=O)Cc4ccccc4)C[C@H]2N3C)cc(OC)c1OC", "> 20 µg/mL"],
  ["COc1cc(C=CC(=O)O[C@H]2C[C@@H]3C[C@H](OC(=O)c4cc(OC)c(OC)c(OC)c4)C[C@H]2N3C)cc(OC)c1OC", "> 20 µg/mL"],
  ["COc1cc(C=CC(=O)O[C@H]2[C@@H](O)[C@@H]3C[C@H](OC(=O)c4cc(OC)c(OC)c(OC)c4)C[C@H]2[N+]3(C)[O-])cc(OC)c1OC (some centres unmarked)", "> 20 µg/mL"],
  ["COc1cc(C=CC(=O)O[C@H]2[C@@H](O)[C@@H]3C[C@H](OC(=O)c4cc(OC)c(OC)c(OC)c4)C[C@H]2N3C)cc(OC)c1OC", "> 20 µg/mL"],
  ["COc1cc(C=CC(=O)O[C@H]2C[C@H]3C[C@H](OC(=O)C=Cc4cc(OC)c(OC)c(OC)c4)[C@@H](C2)N3C)cc(OC)c1OC", "2.2 µg/mL"],
  ["COc1cc(C=CC(=O)O[C@H]2C[C@@H]3C[C@H](OC(=O)Cc4cccc(O)c4)C[C@H]2N3C)cc(OC)c1OC", "14.7 µg/mL"]
]}

We now examine a further compound.
(Q) Value wanted: IC50 (KB, oral epidermoid carcinoma) of entry CN1[C@@H]2C[C@@H](OC(=O)Cc3ccccc3)C[C@H]1[C@H](O)[C@@H]2O [Compound 1, Tropane-3α,6β,7β-triol 3-phenylacetate]
(A) > 20 µg/mL

----------
Molecular target: Pgp (KB-V1 cell membrane vesicles) (Homo sapiens)
Construct: Cell membrane vesicles were prepared from KB-V1 cells following literature procedures; endogenous in cells; plasma membrane vesicles
Sequence (P08183 whole entry): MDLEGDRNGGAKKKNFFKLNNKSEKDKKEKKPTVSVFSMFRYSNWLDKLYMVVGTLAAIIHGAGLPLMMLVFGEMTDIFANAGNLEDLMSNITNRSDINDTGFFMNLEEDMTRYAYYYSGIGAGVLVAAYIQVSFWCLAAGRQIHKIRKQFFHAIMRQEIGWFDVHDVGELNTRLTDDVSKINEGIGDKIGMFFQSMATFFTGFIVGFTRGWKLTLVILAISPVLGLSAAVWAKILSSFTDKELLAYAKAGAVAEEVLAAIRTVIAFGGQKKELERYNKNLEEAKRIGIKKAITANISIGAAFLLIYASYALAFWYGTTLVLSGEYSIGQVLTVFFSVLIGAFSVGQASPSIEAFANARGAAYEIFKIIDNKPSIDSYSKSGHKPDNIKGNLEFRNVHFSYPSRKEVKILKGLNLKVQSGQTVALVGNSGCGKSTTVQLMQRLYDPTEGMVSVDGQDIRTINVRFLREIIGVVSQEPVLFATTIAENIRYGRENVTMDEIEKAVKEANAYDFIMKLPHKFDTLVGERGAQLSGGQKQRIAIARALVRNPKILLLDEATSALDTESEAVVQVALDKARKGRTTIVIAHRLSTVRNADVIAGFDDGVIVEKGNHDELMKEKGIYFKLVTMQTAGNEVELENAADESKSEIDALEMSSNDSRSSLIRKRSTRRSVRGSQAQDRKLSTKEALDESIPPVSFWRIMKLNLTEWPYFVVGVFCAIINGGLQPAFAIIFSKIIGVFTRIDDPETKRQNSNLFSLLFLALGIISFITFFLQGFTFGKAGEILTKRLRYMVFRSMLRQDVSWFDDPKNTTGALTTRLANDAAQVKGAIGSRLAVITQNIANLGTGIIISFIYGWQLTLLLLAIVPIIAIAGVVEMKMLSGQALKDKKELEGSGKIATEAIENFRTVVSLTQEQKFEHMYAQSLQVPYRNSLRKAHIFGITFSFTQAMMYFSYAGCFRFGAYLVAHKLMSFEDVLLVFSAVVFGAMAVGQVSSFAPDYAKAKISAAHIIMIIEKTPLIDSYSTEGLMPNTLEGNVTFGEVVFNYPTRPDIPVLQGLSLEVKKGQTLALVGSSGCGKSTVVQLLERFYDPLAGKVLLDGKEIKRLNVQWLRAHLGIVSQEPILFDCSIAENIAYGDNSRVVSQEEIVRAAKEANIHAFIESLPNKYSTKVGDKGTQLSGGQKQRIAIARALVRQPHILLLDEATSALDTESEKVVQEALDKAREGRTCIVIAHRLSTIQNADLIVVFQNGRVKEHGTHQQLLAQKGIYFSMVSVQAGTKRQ
Assay: [3H]Vinblastine accumulation with KB-V1 cell membrane vesicles
Conditions: 0.16 μM [3H]vinblastine, 0.5 mM ATP, 20 minutes, ambient temperature
REPORTED_ENDPOINT: IC50 (µM)
Numbers only, in µM.

(Q) Suppose we examine the compound COc1cc(C=CC(=O)O[C@H]2[C@@H](O)[C@@H]3C[C@H](OC(=O)c4cc(OC)c(OC)c(OC)c4)C[C@H]2N3C)cc(OC)c1OC [Compound 3] ; what IC50 value has been reported?
(A) 3.84

----------
System: Col2, colon cancer
Assay: In vitro cytotoxicity, human tumor panel: Col2
Format: cell-based
Conditions: Homo sapiens, read-out: ED50 Col2
Description: Cytotoxicity assay. Compounds 1–9 were evaluated for cytotoxic activity against a panel of human cancer cell lines, including KB-V1 in the presence and absence of VLB, according to an established protocol (68).
REPORTED_ENDPOINT: IC50 (µg/mL)
Answers are plain numbers, in µg/mL.

Please review the entries below; each comes with its answer.
{"columns": ["SUBSTANCE_SMILES", "TEST_TARGET", "REPORTED_ENDPOINT", "VALUE_UNIT", "OBSERVED_RESULT"],
 "data": [
  ["COc1cc(C=CC(=O)O[C@H]2C[C@@H]3C[C@H](OC(=O)Cc4cccc(O)c4)C[C@H]2N3C)cc(OC)c1OC", "Col2, colon cancer", "IC50", "µg/mL", 13.4],
  ["COc1cc(C=CC(=O)O[C@H]2C[C@@H]3C[C@H](OC(=O)c4cc(OC)c(OC)c(OC)c4)C[C@H]2N3C)cc(OC)c1OC", "Col2, colon cancer", "IC50", "µg/mL", 1.3]
]}

Batch request: IC50 for each of the following molecules.
1. COc1cc(C=CC(=O)O[C@H]2C[C@@H]3C[C@H](OC(=O)Cc4ccccc4)C[C@H]2N3C)cc(OC)c1OC
2. COc1cc(C=CC(=O)O[C@@H]2C[C@@H]3[C@@H](OC(=O)C=Cc4cc(OC)c(OC)c(OC)c4)[C@@H](O)[C@H](C2)N3C)cc(OC)c1OC
3. COc1cc(C=CC(=O)O[C@H]2C[C@H]3C[C@H](OC(=O)C=Cc4cc(OC)c(OC)c(OC)c4)[C@@H](C2)N3C)cc(OC)c1OC

(A)
1. 4.9
2. 4.9
3. 4.1
